target: F508delCFTR (Homo sapiens, UniProt P13569, DEL508-508); construct: expressed in transfected cells; host or cells: CFBE41o- (human lung derived epithelial cell line), doxycycline-inducible; assay: Cell Surface Expression-Horse Radish Peroxidase (CSE-HRP) assay; type: cell-based; details: CFBE41o-F508delCFTR-HRP cells; maximum at any tested concentration, normalized to on-plate positive control (3 μM)
Sequence (P13569 with tags, fused parts or gaps DEL508-508): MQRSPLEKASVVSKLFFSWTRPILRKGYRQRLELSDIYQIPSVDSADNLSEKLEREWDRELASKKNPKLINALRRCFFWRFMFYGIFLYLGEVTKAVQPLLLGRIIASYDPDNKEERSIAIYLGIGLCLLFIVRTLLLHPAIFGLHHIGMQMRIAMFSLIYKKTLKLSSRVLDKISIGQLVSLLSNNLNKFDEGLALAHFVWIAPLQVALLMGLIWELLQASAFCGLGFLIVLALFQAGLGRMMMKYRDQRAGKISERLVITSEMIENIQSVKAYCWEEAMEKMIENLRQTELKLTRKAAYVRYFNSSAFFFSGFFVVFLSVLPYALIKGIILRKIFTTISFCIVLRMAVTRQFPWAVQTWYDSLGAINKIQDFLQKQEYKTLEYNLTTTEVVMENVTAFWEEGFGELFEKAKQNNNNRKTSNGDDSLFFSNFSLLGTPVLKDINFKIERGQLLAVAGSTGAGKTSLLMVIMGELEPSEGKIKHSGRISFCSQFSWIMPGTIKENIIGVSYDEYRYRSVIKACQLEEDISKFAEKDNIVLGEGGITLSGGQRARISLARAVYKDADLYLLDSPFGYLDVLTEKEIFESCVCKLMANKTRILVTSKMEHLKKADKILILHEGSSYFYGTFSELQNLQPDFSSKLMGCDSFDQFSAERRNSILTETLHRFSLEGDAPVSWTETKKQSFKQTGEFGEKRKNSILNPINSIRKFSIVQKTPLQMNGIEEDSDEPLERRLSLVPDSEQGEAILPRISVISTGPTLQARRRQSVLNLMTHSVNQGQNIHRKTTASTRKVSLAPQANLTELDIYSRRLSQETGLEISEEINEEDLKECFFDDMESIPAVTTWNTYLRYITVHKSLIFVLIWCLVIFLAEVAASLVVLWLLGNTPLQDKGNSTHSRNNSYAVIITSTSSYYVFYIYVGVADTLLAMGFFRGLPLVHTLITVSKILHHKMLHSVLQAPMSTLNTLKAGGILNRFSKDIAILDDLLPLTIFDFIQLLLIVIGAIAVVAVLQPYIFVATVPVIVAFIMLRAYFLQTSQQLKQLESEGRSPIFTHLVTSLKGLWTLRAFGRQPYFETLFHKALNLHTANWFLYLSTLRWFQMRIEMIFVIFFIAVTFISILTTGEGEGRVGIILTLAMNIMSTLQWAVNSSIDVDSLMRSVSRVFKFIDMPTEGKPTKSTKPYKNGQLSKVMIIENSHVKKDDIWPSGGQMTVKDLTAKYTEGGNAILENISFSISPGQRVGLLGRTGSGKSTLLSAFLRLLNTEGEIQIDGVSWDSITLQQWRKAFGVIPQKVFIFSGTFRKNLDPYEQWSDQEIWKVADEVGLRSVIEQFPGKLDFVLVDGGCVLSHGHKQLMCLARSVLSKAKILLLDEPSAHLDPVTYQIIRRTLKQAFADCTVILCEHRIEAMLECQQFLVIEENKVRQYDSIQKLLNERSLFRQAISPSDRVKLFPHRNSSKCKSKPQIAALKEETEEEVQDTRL
PARAMETER: Maximum % activity (%)

COc1ccc2c(c1)O[C@@H](c1cccc(C(=O)O)c1)C[C@H]2NC(=O)C(C)(C)c1ccc2c(c1)OCCO2 ... 41.7

[a] COc1ccc(C2(C(=O)N[C@@H]3C[C@H](c4ccc(C(=O)O)cc4)Oc4cc(OC)ccc43)CC2)cc1
[b] COc1ccc2c(c1)OC(c1ccc(OC)c(OC)c1)CC2NC(=O)C1(c2ccc(Cl)cc2)CC1 (stereo not shown)
Record comparison, field Maximum % activity: mark the lower of a and b . Indicate which entry you chose by stating its label.
a
(a: 49.8%, b: 77.8%)

[a] COc1ccc2c(c1)O[C@@H](c1ccc(C(=O)O)cc1)C[C@H]2NC(=O)C(C)(C)c1ccc(OC)c(F)c1
[b] COc1ccc2c(c1)O[C@@H](c1ccc(C(=O)O)cc1)C[C@H]2NC(=O)C1(c2ccc(Cl)c(Cl)c2)CCC1
I would appreciate it if you could say which entry, a or b , has the lower Maximum % activity value. Answer with the label corresponding to your selection.
a
(a: 43.5%, b: 76.0%)
